So I've got a bunch of compounds here, and I need their growth values.
# Test system: 786-0 renal
# EXPERIMENT_NOTES: NCI-60 one-dose screen, 48 h (100 = growth as untreated, 0 = no growth, -100 = all killed)
# STATED_CONDITIONS: 10 µM unless noted
This is part of a sample that, as a whole, favours compounds with a hit. Of some 83,000 tested, about 20% had one in any assay.
Numbers only, in %.

As a guide, the following entries are already answered.
COMPOUND: COc1ccc(OC)c(-c2c(C#N)c(-c3ccco3)nc3c2c(-c2ccccc2)nn3-c2ccccc2)c1
ASSAY_TARGET: 786-0 renal
growth / %: 100
//
COMPOUND: COc1cc2[nH]c(C(=O)c3cc(OC)c(OC)c(OC)c3)c(N)c2cc1C#CCO
ASSAY_TARGET: 786-0 renal
growth / %: 40.8
//
COMPOUND: NC1=NN(c2ccccc2)C(=O)/C1=C/c1ccc(Cl)cc1
ASSAY_TARGET: 786-0 renal
growth / %: 94.4
//
COMPOUND: COc1cccc(-c2nn(-c3ccccc3)cc2-c2ccnc(NCCCN)c2)c1
ASSAY_TARGET: 786-0 renal
growth / %: 52.1
//
COMPOUND: Clc1ccc2[nH]cc(-c3nc(-c4c[nH]c5ncccc45)cs3)c2c1
ASSAY_TARGET: 786-0 renal
growth / %: 27.6

Batch request: growth per item, same order as input.
1. O=c1[nH]c2c3ccncc3cc(-c3cccc(Cl)c3)c2c2cnccc12
2. CCCCC[C@H]1C/C=C2/C(=O)C(Cl)=C[C@@H]2C/C=C\CCCC(=O)O1
3. CC1(c2ccccc2)OC1C(=O)O (stereo not drawn)

OUTPUT:
1. 17.4
2. -73.4
3. 99.7

Consider the following items and state reported growth for each.
1. COc1cccc(-c2nn(-c3ccccc3)cc2-c2ccnc(NCCNS(=O)(=O)c3cccc(F)c3)c2)c1
2. Cc1cc2nc3c4cc(N)ccc4n(CCN(C)C)c3nc2cc1C
3. Cc1ccc(-c2nn(Cc3cn(-c4cc(C)nc5ccccc45)nn3)c3ncnc(N)c23)cc1
4. COc1cc2c3c(c4c5ccccc5[nH]c4c2c(OC)c1OC)C(=O)N(O)C3=O
5. COC(=O)[C@]12CC[C@@H](C)[C@H](C)[C@@H]1C1=CC[C@@H]3[C@@]4(C)C(c5ncon5)=C[C@@](C)(CO)C4=CC[C@@]3(C)[C@]1(C)CC2

OUTPUT:
25.9
26.2
48.6
69.6
-23.8

====

# Tested on: SF-539 CNS
# EXPERIMENT_NOTES: NCI-60 one-dose screen, 48 h (100 = growth as untreated, 0 = no growth, -100 = all killed)
# STATED_CONDITIONS: 10 µM unless noted
Compounds without any hit were thinned out: in the full panel of roughly 83,000, 20% have a hit.
MEASURED_PROPERTY: growth (%)
Numbers only, in %.

Look at each compound and report its growth.
1. CN1CCN(CC#CCn2c3c(c4ccccc42)C[C@]2(C)[C@H]4CC[C@@H]5[C@H]6[C@H]7OC(=O)[C@@]6(CCC7(C)C)CC[C@@]5(C)[C@]4(C)CC[C@H]2C3(C)C)CC1
2. C[C@]12CC[C@@H]3c4ccc(O)cc4CC[C@H]3[C@@H]1C[C@H](O)[C@@H]2O
3. COc1cccc(-c2nn(-c3ccccc3)cc2-c2ccnc(NCCCNS(=O)(=O)c3ccc(Br)cc3)c2)c1
4. O=C1c2cccc3cccc(c23)C(=O)N1CC#Cc1ccc2c3c(cccc13)C(=O)N(CCN1CCNCC1)C2=O
5. O=C(/C=C\c1ccc2c(c1)OCO2)/C=C/c1ccc2c(c1)OCO2

OUTPUT:
[89.1, 92.1, 76.3, 10.2, 26.2]
